Would you kindly list protein stability index for each of these variants?
B1: KLHL14 (parent)
chain: CAVLDDSIYLVGGYSWSMGAYKSS

variants of: B1; assay: protein stability index of a GFP-peptide fusion (GPS, HEK-293T) (PSI 1-6); higher = more stable; details: c terminus: a fixed tail appended;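 note: lentivirally expressed fusions sorted by FACS into six bins by GFP to DsRed ratio, PSI derived from sequencing read proportions per bin multiplied by bin number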
Give bare numbers.

Solved cases (8 shown):
Query: Give the measured protein stability index of G13T .
Result: 3.26

Query: Try this variant next: S24G
Result: 1.65

Query: Cool, now L4S
Result: 1.49

Query: Consider next the variant V11H in the same way.
Result: 1.88

Query: Field entry: L10A
Result: 1.55

Query: // next record A2N
Result: 2.05

Query: Next record, please: D6R
Result: 3.76

Query: Can you handle Y14T next?
Result: 1.44

Would you mind listing protein stability index for each of the following variants?
1. M18L
2. L10G
3. Y14E
4. W16D
5. W16R
6. S15V

Result:
2.48
2.23
1.69
2.14
1.78
3.31
